tested on: HCT-15; experiment: Cytotoxicity against human HCT15 cells; type: functional; conditions: read-out: ED50 (the source's name)
measured-metric: EC50

compound	EC50
CCCCCCCCCCCC(=O)O[C@H]1[C@H](O[C@@H]2[C@@H](O)[C@H]3OC(=O)CCCCCCCCCC(CCCCC)O[C@@H]4O[C@H](CO)[C@@H](O)[C@H](O)[C@H]4O[C@H]3O[C@H]2C)O[C@@H](C)[C@H](O[C@@H]2O[C@@H](C)[C@H](OC(=O)C(C)CC)[C@@H](OC(=O)C(C)C(C)O)[C@H]2O[C@H]2O[C@H](CO)[C@@H](O)[C@H](O)[C@H]2O)[C@H]1O (some centres not stated) [ARBORESIN 5]	> 5 µg/mL

EC50 reported for this compound CCCCCCCCCCCC(=O)O[C@H]1[C@H](O[C@@H]2[C@@H](O)[C@H]3OC(=O)CCCCCCCCCC(CCCCC)O[C@@H]4O[C@H](CO)[C@@H](O)[C@H](O)[C@H]4O[C@H]3O[C@H]2C)O[C@@H](C)[C@H](O[C@@H]2O[C@@H](C)[C@H](OC(=O)CCC)[C@@H](OC(=O)C(C)C(C)O)[C@H]2O[C@H]2O[C@H](CO)[C@@H](O)[C@H](O)[C@H]2O)[C@H]1O (some centres not stated) [ARBORESIN 4] : > 5 µg/mL

* * *

test system: HCT-15; assay: Cytotoxicity against human HCT15 cells; format: functional; settings: read-out: ED50 (the source's name)
Measured EC50 of individual entries

// known answers, use as guide
compound	measured-metric	reported
CCCCCCCCCCCC(=O)O[C@H]1[C@H](O[C@@H]2[C@@H](O)[C@H]3OC(=O)CCCCCCCCCC(CCCCC)O[C@@H]4O[C@H](CO)[C@@H](O)[C@H](O)[C@H]4O[C@H]3O[C@H]2C)O[C@@H](C)[C@H](O[C@@H]2O[C@@H](C)[C@H](O)[C@@H](OC(=O)C(C)C(C)O)[C@H]2O[C@H]2O[C@H](CO)[C@@H](O)[C@H](O)[C@H]2O)[C@H]1O (stereo partly drawn)	EC50	> 5 µg/mL
CCCCCCCCCCCC(=O)O[C@H]1[C@H](O[C@@H]2[C@@H](O)[C@H]3OC(=O)CCCCCCCCCC(CCCCC)O[C@@H]4O[C@H](CO)[C@@H](O)[C@H](O)[C@H]4O[C@H]3O[C@H]2C)O[C@@H](C)[C@H](O[C@@H]2O[C@@H](C)[C@H](OC(C)=O)[C@@H](OC(=O)C(C)C(C)O)[C@H]2O[C@H]2O[C@H](CO)[C@@H](O)[C@H](O)[C@H]2O)[C@H]1O (stereo partly drawn)	EC50	> 5 µg/mL

# input for lookup
Per the reported HCT-15 data, C/C=C(\C)C(=O)O[C@@H]1[C@@H](OC(=O)C(C)C(C)O)[C@@H](O[C@H]2O[C@H](CO)[C@@H](O)[C@H](O)[C@H]2O)[C@H](O[C@@H]2[C@@H](O)[C@@H](OC(=O)CCCCCCCCCCC)[C@H](O[C@@H]3[C@@H](O)[C@H]4OC(=O)CCCCCCCCCC(CCCCC)O[C@@H]5O[C@H](C)[C@@H](O)[C@H](O)[C@H]5O[C@H]4O[C@H]3C)O[C@H]2C)O[C@H]1C (stereo partly drawn) has EC50 of > 5 µg/mL

* * *

tested on: HCT-15; experiment: Cytotoxicity against human HCT15 cells; assay type: functional; details: read-out: ED50 (the source's name)
measured-metric: EC50

// known answers, use as guide
molecule	EC50
CCCCCCCCCCCC(=O)O[C@H]1[C@H](O[C@@H]2[C@@H](O)[C@H]3OC(=O)CCCCCCCCCC(CCCCC)O[C@@H]4O[C@H](CO)[C@@H](O)[C@H](O)[C@H]4O[C@H]3O[C@H]2C)O[C@@H](C)[C@H](O[C@@H]2O[C@@H](C)[C@H](OC(=O)CC)[C@@H](OC(=O)C(C)C(C)O)[C@H]2O[C@H]2O[C@H](CO)[C@@H](O)[C@H](O)[C@H]2O)[C@H]1O (stereo partly drawn)	> 5 µg/mL
CCCCCCCCCCCC(=O)O[C@H]1[C@H](O[C@@H]2[C@@H](O)[C@H]3OC(=O)CCCCCCCCCC(CCCCC)O[C@@H]4O[C@H](C)[C@@H](O)[C@H](O)[C@H]4O[C@H]3O[C@H]2C)O[C@@H](C)[C@H](O[C@@H]2O[C@@H](C)[C@H](O)[C@@H](O)[C@H]2O[C@H]2O[C@H](CO)[C@@H](O)[C@H](O)[C@H]2O)[C@H]1O (stereo partly drawn)	> 5 µg/mL

EC50 reported for this molecule C/C=C/C(=O)O[C@@H]1[C@@H](OC(=O)C(C)C(C)O)[C@@H](O[C@H]2O[C@H](CO)[C@@H](O)[C@H](O)[C@H]2O)[C@H](O[C@@H]2[C@@H](O)[C@@H](OC(=O)CCCCCCCCCCC)[C@H](O[C@@H]3[C@@H](O)[C@H]4OC(=O)CCCCCCCCCC(CCCCC)O[C@@H]5O[C@H](C)[C@@H](O)[C@H](O)[C@H]5O[C@H]4O[C@H]3C)O[C@H]2C)O[C@H]1C (stereo partly drawn) : > 5 µg/mL
